Experiment: Metabolic stability in Sprague-Dawley rat liver microsomes assessed as compound remaining after 120 mins in presence of NADPH by UV-based HPLC-MS/MS analysis
Assay type: ADME, microsome
Settings: read-out: Stability
measure: remaining at 2 h (%)

- C=C(c1ccc(OC)c(O)c1)c1cc(OC)c(OC)c(OC)c1: 49.8
- COc1ccc(/C=C\c2cc(OC)c(OC)c(OC)c2)cc1O: 19.9
- C=C(c1ccc(OC)c(O)c1)c1cc(OC)c(OC)c([Se]C)c1: 33.4

====

Test system: A549
Experiment: cells
Settings: Homo sapiens, A549, 48 h
pIC50: −log10 of the molar value.
measure: pIC50

- C=C(c1ccc(OC)c(OC)c1)c1cc(OC)c(OC)c([Se]C)c1: 6.58
- C=C(c1ccc(OC)c(O)c1)c1cc(OC)c(OC)c([Se]C)c1: 8.41
- COc1ccc(C(=O)c2cc(OC)c(OC)c([Se]C)c2)cc1O: 7.26
- C=C(c1ccc(OC)c(O)c1)c1cc(OC)c(OC)c(OC)c1: 8.46
- C=C(c1ccc(OC)c(Br)c1)c1cc(OC)c(OC)c([Se]C)c1: 6.63
- COc1cc(C(=O)c2cc(OC)c(OC)c([Se]C)c2)cc(OC)c1OC: 6.76
